From: patent US10080756B2

Tested on: Pfeiffer
testDetails: Cell Titer Glo viability assay, Pfeiffer
Type: cell-based
reportedConditions: Homo sapiens, 72 h, read-out: Inhibition of Viability, EC50
Protocol: All procedures were performed at Gilead Sciences, Inc. in Branford, The compound of formula (I), cyclophosphamide, doxorubicin and vincristine sulfate were dissolved in DMSO to prepare stock solutions that were serially diluted three-fold in DMSO in a 96 well plate format at 1000× so the final starting assay concentrations tested would be 10 μM, 200 μM, 10 μM, and 1 μM respectively, for each compound. Compound plates were diluted 1:100 in RPMI without serum or additives creating a 10× stock. […]
pEC50: −log10 of the molar value.

| compound | pEC50 |
| --- | --- |
| O=P1(N(CCCl)CCCl)NCCCO1 (stereo not shown) [Cyclophosphamide, cyclophosphamide] | < 5.00 |

###

Tested on: OCI-LY3
testDetails: Cell Titer Glo viability assay, OCI-LY3
Type: cell-based
reportedConditions: Homo sapiens, OCI-Ly3, 72 h, read-out: Inhibition of Viability, EC50
pEC50: −log10 of the molar value.

| compound | pEC50 |
| --- | --- |
| O=P1(N(CCCl)CCCl)NCCCO1 (stereo not shown) [Cyclophosphamide, cyclophosphamide] | < 5.00 |

###

System: OCI-LY19
testDetails: Cell Titer Glo viability assay, OCI-LY19
Format: cell-based
reportedConditions: Homo sapiens; OCI-LY19, DLBCL; single agent; 72 hours; read-out: Inhibition of Viability, EC50
The following compounds are listed with their measured EC50 values.

| compound | qualifierSymbol | EC50, nM |
| --- | --- | --- |
| c1cn2cc(-c3ccc4cn[nH]c4c3)nc(Nc3ccc(N4CCOCC4)cc3)c2n1 [Compound of Formula I] | > | 3000 |
| CC[C@]1(O)C[C@H]2CN(CCc3c([nH]c4ccccc34)[C@@](C(=O)OC)(c3cc4c(cc3OC)N(C=O)[C@H]3[C@@](O)(C(=O)OC)[C@H](OC(C)=O)[C@]5(CC)C=CCN6CC[C@]43[C@@H]65)C2)C1 [Vincristine, vincristine] | = | 1.2 |
| COc1cccc2c1C(=O)c1c(O)c3c(c(O)c1C2=O)C[C@@](O)(C(=O)CO)C[C@@H]3O[C@H]1C[C@H](N)[C@H](O)[C@H](C)O1 [Doxorubicin, doxorubicin] | = | 3.1 |

###

System: RPMI-8266
testDetails: Cell Titer Glo viability assay, RPMI-8266
Assay type: cell-based
reportedConditions: RPMI8266; RPMI-8266, MM; single agent; 72 hours; read-out: Inhibition of Viability, EC50
pEC50: −log10 of the molar value.

| smilesNotation | assaySystem | qualifierSymbol | pEC50 |
| --- | --- | --- | --- |
| COc1cccc2c1C(=O)c1c(O)c3c(c(O)c1C2=O)C[C@@](O)(C(=O)CO)C[C@@H]3O[C@H]1C[C@H](N)[C@H](O)[C@H](C)O1 | RPMI-8266 | = | 6.75 |
| c1cn2cc(-c3ccc4cn[nH]c4c3)nc(Nc3ccc(N4CCOCC4)cc3)c2n1 | RPMI-8266 | < | 5.52 |
| CC[C@]1(O)C[C@H]2CN(CCc3c([nH]c4ccccc34)[C@@](C(=O)OC)(c3cc4c(cc3OC)N(C=O)[C@H]3[C@@](O)(C(=O)OC)[C@H](OC(C)=O)[C@]5(CC)C=CCN6CC[C@]43[C@@H]65)C2)C1 | RPMI-8266 | = | 7.17 |
